# credit: patent US20230074436A1

- STUDY_SYSTEM: human alpha-synuclein monomer (human, UniProt P37840 1-140)
- ASSAY_NAME: SPR (Biacore 8K), IgG captured on anti-human Fc, aSyn monomer injected
MEASUREMENT_LABEL: pKd
// pKd: -log10(molar conc.)

Task item: Please give measured pKd of the following entry: HC3_LC6 (antibody, V domains shown, humanized 20H4 IgG) VH: EVQLVESGGGLVQPGGSLRLSCAASGFTFSNAAMYWVRQAPGKGLELVSRIRTKPNNYATYHADSVKGRFTISRDNSKNTVYLQMNSLRAEDTAVYYCTADMATGDYWGQGTLVTVSS VL: EIVMTQSPATLSLSPGERATLSCKASQNINKNLDWYQQKPGQAPRPLIYSTNNLQTGVPARFSGSGSGTDYTLTISSLQPEDFAVYYCYQYKSAWTFGQGTKVEIK
Reply: 8.56

Task item: Please give measured pKd of the following entry: HC3_LC1 (antibody, V domains shown, humanized 20H4 IgG) VH: EVQLVESGGGLVQPGGSLRLSCAASGFTFSNAAMYWVRQAPGKGLELVSRIRTKPNNYATYHADSVKGRFTISRDNSKNTVYLQMNSLRAEDTAVYYCTADMATGDYWGQGTLVTVSS VL: DIQMTQSPSSLSASVGDRVTITCKASQNINKNLDWYQQKPGKAPKLLIYSTNNLQTGVPSRFSGSGSGTDFTLTISSLQPEDFATYYCYQYKSAWTFGQGTKVEIK
Reply: 8.67

Task item: Please give measured pKd of the following entry: HC2_LC6 (antibody, V domains shown, humanized 20H4 IgG) VH: EVQLVESGGGLVQPGGSLRLSCAASGFTFSNAAMYWVRQAPGKGLELVSRIRTKPNNYATYHADSVKGRFTISRDNSKNTLYLQMNSLRAEDTAVYYCTADMATGDYWGQGTLVTVSS VL: EIVMTQSPATLSLSPGERATLSCKASQNINKNLDWYQQKPGQAPRPLIYSTNNLQTGVPARFSGSGSGTDYTLTISSLQPEDFAVYYCYQYKSAWTFGQGTKVEIK
Reply: 8.28

Task item: Please give measured pKd of the following entry: HC2_LC3 (antibody, V domains shown, humanized 20H4 IgG) VH: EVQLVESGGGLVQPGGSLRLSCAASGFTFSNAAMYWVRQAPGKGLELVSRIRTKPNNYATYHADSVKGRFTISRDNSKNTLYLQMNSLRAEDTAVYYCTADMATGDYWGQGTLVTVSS VL: DIQMTQSPSSLSASVGDRVTITCKASQNINKNLDWYQQKPGKAPKPLIYSTNNLQTGVPSRFSGSGSGTDYTLTISSLQPEDFATYYCYQYKSAWTFGQGTKVEIK
Reply: 8.18

Task item: Please give measured pKd of the following entry: HC5_LC2 (antibody, V domains shown, humanized 20H4 IgG) VH: EVQLVESGGGLVQPGGSLRLSCAASGFTFSNAAMYWVRQAPGKGLELLARIRTKPNNYATYHADSVKGRFTISRDDSKNTVYLQMNSLRAEDTAVYYCTADMATGDYWGQGTLVTVSS VL: DIQMTQSPSSLSASVGDRVTITCKASQNINKNLDWYQQKPGKAPKPLIYSTNNLQTGVPSRFSGSGSGTDFTLTISSLQPEDFATYYCYQYKSAWTFGQGTKVEIK
Reply: 8.81
